For each of the compounds below, state its inhibition.
molecular target: Proteinase-activated receptor 1 (Homo sapiens); assay: Inhibition of SFLLRN-NH2-stimulated PAR1-mediated platelet activation in […] assessed as surface expression of P-selectin at 10 uM after 20 mins by flow cytometry; format: cell-based
Answer format: numeric, % implied, no suffix.

// field: inhibition; key: O=C(Nc1cccc(NC(=O)C2CCCC2)c1)c1ccccc1Br ; value = 91

// field: inhibition; key: CC(=O)N1CCCc2ccc(NC(=O)c3ccccc3Br)cc21 ; value = 10

// field: inhibition; key: CCCC(=O)Nc1cccc(NC(=O)c2ccccc2F)c1 ; value = 99

// field: inhibition; key: CCCNC(=O)c1cccc(NC(=O)c2ccccc2Cl)c1 ; value = 99

// field: inhibition; key: CCCC(=O)Nc1cccc(NC(=O)c2ccccc2C(=O)N(C)C)c1 ; value = 48

// field: inhibition; key: CC(C)C(=O)Nc1cccc(NC(=O)c2ccccc2Br)c1 ; value = 88

// field: inhibition; key: CCCC(=O)Nc1cccc(NC(=O)c2cccc(S(C)(=O)=O)c2)c1 ; value = 25

// field: inhibition; key: CCCC(=O)Nc1cccc(NC(=O)c2cnc3ccccc3c2)c1 ; value = 10

// field: inhibition; key: CCCC(=O)Nc1cccc(NC(=O)c2ccccc2S(C)(=O)=O)c1 ; value = 21

###

For each of the compounds below, state its inhibition.
Target: Proteinase-activated receptor 1 (Homo sapiens)
Sequence (whole entry): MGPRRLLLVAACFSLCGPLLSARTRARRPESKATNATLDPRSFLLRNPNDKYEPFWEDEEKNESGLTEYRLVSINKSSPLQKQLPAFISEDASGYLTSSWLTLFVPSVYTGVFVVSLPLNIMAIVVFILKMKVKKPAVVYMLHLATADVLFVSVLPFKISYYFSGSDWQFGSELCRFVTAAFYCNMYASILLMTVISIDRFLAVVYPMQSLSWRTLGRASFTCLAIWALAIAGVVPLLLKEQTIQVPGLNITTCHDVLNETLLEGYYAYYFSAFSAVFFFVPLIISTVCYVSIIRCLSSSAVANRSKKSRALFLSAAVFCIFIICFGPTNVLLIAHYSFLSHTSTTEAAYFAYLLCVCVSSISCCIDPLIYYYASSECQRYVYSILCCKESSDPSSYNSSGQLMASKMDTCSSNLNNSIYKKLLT
Assay: Inhibition of SFLLRN-NH2-stimulated PAR1-mediated platelet activation in […] assessed as surface expression of P-selectin at 10 uM after 20 mins by flow cytometry
Type: cell-based
Answer format: numeric, % implied, no suffix.

// field: inhibition; key: CCCCS(=O)(=O)Nc1cccc(NC(=O)c2ccccc2Br)c1 ; value = 31

// field: inhibition; key: CCCC(=O)Nc1cccc(NC(=O)c2cc(Cl)ccc2Br)c1 ; value = 68

// field: inhibition; key: CCCC(=O)Nc1cccc(NC(=O)c2ccccc2OC)c1 ; value = 50

###

For each of the compounds below, state its inhibition.
Molecular target: Proteinase-activated receptor 1 (Homo sapiens) (UniProt P25116)
Sequence (whole entry): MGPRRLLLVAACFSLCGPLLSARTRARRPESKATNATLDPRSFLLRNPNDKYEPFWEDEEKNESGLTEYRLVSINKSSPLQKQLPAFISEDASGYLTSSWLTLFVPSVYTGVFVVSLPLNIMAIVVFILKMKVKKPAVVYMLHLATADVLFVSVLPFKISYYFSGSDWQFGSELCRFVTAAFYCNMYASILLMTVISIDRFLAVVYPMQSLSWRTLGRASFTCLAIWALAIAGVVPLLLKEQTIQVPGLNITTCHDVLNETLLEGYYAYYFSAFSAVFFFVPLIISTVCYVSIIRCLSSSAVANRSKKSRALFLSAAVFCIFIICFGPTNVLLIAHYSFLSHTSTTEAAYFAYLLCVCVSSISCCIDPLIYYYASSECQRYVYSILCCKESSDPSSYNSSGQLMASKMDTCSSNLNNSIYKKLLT
Assay: Inhibition of SFLLRN-NH2-stimulated PAR1-mediated platelet activation in […] assessed as surface expression of P-selectin at 10 uM after 20 mins by flow cytometry
Type: cell-based

// field: inhibition; key: CCCC(=O)Nc1cccc(NC(=O)c2ccccc2CC)c1 ; value = > 99%

// field: inhibition; key: CCCC(=O)Nc1cccc(NC(=O)c2ccccc2-c2ccccc2)c1 ; value = < 1%

// field: inhibition; key: CC(C)CC(=O)Nc1cccc(NC(=O)c2ccccc2Br)c1 ; value = > 99%

// field: inhibition; key: CCCC(=O)Nc1cccc(NC(=O)c2ccccc2Cl)c1 ; value = > 99%

// field: inhibition; key: CCCC(=O)Nc1cccc(NC(=O)c2cc(F)ccc2Br)c1 ; value = > 99%

// field: inhibition; key: CN(C(=O)c1ccccc1Br)c1cccc(NC(=O)C2CCCC2)c1 ; value = < 1%

// field: inhibition; key: CCCCNc1cccc(NC(=O)c2ccccc2Br)c1 ; value = > 99%
